- assayTarget: T1, canine CD20 (canine, UniProt Q3C2E2 1-297)
- T1 chain: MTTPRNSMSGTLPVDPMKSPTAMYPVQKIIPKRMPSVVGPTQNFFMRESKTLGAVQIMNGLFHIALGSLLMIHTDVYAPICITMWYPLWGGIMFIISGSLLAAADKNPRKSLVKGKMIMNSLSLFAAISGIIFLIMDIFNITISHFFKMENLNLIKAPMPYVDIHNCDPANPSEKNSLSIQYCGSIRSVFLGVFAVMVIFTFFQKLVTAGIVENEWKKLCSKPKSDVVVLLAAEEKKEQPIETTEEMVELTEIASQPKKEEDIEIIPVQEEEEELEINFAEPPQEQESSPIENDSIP
- protocolDescription: cell-based or functional assay
quantity: CDC Maximum killing (%)
Write the value in % as a bare number.

PMX071 (antibody, V domains shown) VH: EVHLVESGGDLVKPGGSLRLSCVASGITFNRYYMNWVRQTPGKGLQWVAYIDSGGSPTTYADAVKGRFTISRDNAKNTLYLQMNSLRAEDTAVYYCTSFDYWGQGTLVTVSS VL: SYVLTQLPSKNVTLKQPAHITCGGDNIGSKSVHWYQQKLGQAPILIIYYDTSRPTGIPERFSGANSGNTATLTISGALAEDEADYYCQVWDSSANVFGGGTHLTVL
94.3

Could you please provide reported CDC Maximum killing (%) for PMX079 (antibody, V domains shown) VH: EVQLVESGGDLVKPGGSLRLSCVASGLTFSRYHMSWVRQAPGKGLQWVAFINSGRSDTTYADAVKGRFTISRDNAKNTLYLQMNSLRAEDTAVYYCTTFDYWGQGTLVTVSS VL: SYVLTQLPSKNVTLKQPAHITCGGDNIGSKSVHWYQQKLGQAPALIIYYDSSRPTGIPERFSGANSGNTATLTISGALAEDEADYYCQVWDSSANVFGGGTHLTVL ? Thanks!
96.7

Could you please provide reported CDC Maximum killing (%) for PMX067 (antibody, V domains shown) VH: EIQLVESGGDLVKPGGSLRLSCVASGFTFSRYHMSWVRQAPGKGLQWVAYINTGGSNTNYADAVKGRFTISRDNAKNTLYLQMNSLRAEDTAVYYCTTLDSWGQGTLVTVSS VL: SYVLTQLPFKNVTLKQPAHITCGGDNIGSKSVHWYQQKLGQAPVLIIYYDSRRPTGIPERFSGANSGNTATLTISGALAEDEADYYCQVWDSSVNVFGGGTHLTVL ? Thanks!
97.8
